# credit: patent US9540323B2

- system: cloned human P2Y1 receptors (Homo sapiens (Human), UniProt P47900)
- Sequence (P47900 whole entry): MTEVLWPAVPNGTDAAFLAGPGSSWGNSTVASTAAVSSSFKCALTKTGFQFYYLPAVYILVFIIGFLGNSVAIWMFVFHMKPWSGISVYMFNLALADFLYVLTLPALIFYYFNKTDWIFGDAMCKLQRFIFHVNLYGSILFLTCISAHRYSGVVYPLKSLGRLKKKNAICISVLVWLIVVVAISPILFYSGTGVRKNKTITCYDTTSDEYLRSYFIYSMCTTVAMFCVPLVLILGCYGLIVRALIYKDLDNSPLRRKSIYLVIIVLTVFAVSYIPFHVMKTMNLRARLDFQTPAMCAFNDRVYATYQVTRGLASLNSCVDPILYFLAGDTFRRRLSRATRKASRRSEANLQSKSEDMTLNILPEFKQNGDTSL
- assay.details: Binding Assay B - Scintillation Proximity Assay (SPA) for P2Y1 binding, [33P] 2MeS-ADP
- condition.info: SPA, 0.3 nM [33P] 2MeS-ADP, Cheng-Prusoff; read-out: P2Y1 Ki (nM) using binding assay B
experimental.readout: Ki (nM)
One number for each entry, in nM.

For each of the compounds below, note its Ki.
1. CC1(C)CN(c2ccccc2NC(=O)Nc2nc3ccc(F)nc3s2)c2c(O)cc(F)c(-c3nc4cc(Cl)ccc4s3)c21
2. CC1(C)CN(c2ccccc2NC(=O)Nc2ccc(OC(F)(F)F)cc2)c2c(O)cc(F)c(-c3cccc(C#N)c3)c21
3. CC(C)(C)c1nc(-c2c(F)cc(O)c3c2C(C)(C)CN3c2ccccc2NC(=O)Nc2nc3ccc(Cl)cc3s2)co1
4. CC1(C)CN(c2ccccc2NC(=O)Nc2nc3ccc(Cl)cc3s2)c2c(O)cc(F)c(-c3nc4cc(F)ccc4s3)c21
5. Cc1ccnc2oc(-c3ccc(O)c4c3C(C)(C)CN4c3ccccc3NC(=O)Nc3ccc(OC(F)(F)F)cc3)nc12
6. CCC1(CC)CN(c2ccccc2NC(=O)Nc2ccc(OC(F)(F)F)cc2)c2c(O)ccc(Cl)c21
7. CC1(C)CN(c2ccccc2NC(=O)Nc2csc(Cl)n2)c2c(O)ccc(-c3ccc(F)cc3)c21

18.7
10
17.3
22.5
11.1
14.1
4.9

----------
Would you mind telling me the reported IC50 of each entry?
- Tested on: human platelet rich plasma (PRP)
- assay.details: ADP induced platelet aggregation assay
- condition.info: Homo sapiens, Platelet, 5 min, read-out: PA IC50 (μM) @ 10 μM ADP, human PRP, 10 μM ADP, AUC at 5 minute

// for each molecule in input: emit IC50
1. CC1(C)CN(c2ccccc2NC(=O)Nc2ccc(OC(F)(F)F)cc2)c2c(O)ccc(-c3ccc(Cl)s3)c21 [Example 121]
2. CC1(C)CN(c2ccccc2NC(=O)Nc2nc3ccc(F)nc3s2)c2c(O)cc(F)c(-c3ccc(F)cc3)c21 [Example 233]
3. CC(C)c1cnc(-c2ccc(O)c3c2C(C)(C)CN3c2ccccc2NC(=O)Nc2ccc(OC(F)(F)F)cc2)nc1 [Example 126]
4. COC(=O)c1ccc(O)c2c1C(C)(C)CN2c1ccccc1NC(=O)Nc1ccc(OC(F)(F)F)cc1 [Example 80]
5. CC1(C)CN(c2ccccc2NC(=O)Nc2nc3ccc(Cl)nc3s2)c2c(O)cc(F)c(-c3noc(C(F)(F)F)n3)c21 [Example 257]
6. CC1(C)CN(c2ccccc2NC(=O)NC2CCN(CC(F)(F)F)CC2)c2c(O)ccc(C(F)(F)F)c21 [Example 3]
7. CC1(C)CN(c2ccccc2NC(=O)Nc2ccc(OC(F)(F)F)cc2)c2c(O)cc(F)c(-c3ccno3)c21 [Example 261]

1. 0.2 µM
2. 0.31 µM
3. 0.3 µM
4. 0.84 µM
5. 0.29 µM
6. 3.1 µM
7. 1.99 µM

----------
Answer each item with its documented IC50.
- System: human platelet rich plasma (PRP)
- assay.details: ADP induced platelet aggregation assay
- condition.info: Homo sapiens, Platelet, 5 min, read-out: PA IC50 (μM) @ 10 μM ADP, human PRP, 10 μM ADP, AUC at 5 minute
Answers are plain numbers, in µM.

# compound, observed
data = [
    ("CC1(C)CN(c2ccccc2NC(=O)Nc2nc3ccc(F)cc3s2)c2c(O)ccc(-c3nc4ccc(F)cc4o3)c21 [Example 101]", 0.67),
    ("CC1(C)CN(c2cc(F)ccc2NC(=O)Nc2nc3ccc(F)cc3s2)c2c(O)ccc(C(F)(F)F)c21 [Example 64]", 0.21),
    ("CC1(C)CN(c2ccccc2NC(=O)Nc2ccc(OC(F)(F)F)cc2)c2c(O)ccc(C#N)c21 [Example 47]", 3.35),
]

Attention now turns to another entry.
Value of measured IC50 for the entry COc1cncc(-c2ccc(O)c3c2C(C)(C)CN3c2ccccc2NC(=O)Nc2ccc(OC(F)(F)F)cc2)c1 [Example 118] : 0.6

----------
For each entry below, report its IC50 value.
- Test system: human platelet rich plasma (PRP)
- assay.details: ADP induced platelet aggregation assay
- condition.info: Homo sapiens, Platelet, 5 min, read-out: PA IC50 (μM) @ 10 μM ADP, human PRP, 10 μM ADP, AUC at 5 minute

# compound, system, IC50
measured = [
    ("CC1(C)CN(c2ccccc2NC(=O)Nc2ccc(OC(F)(F)F)cc2)c2c(O)ccc(-c3nc4cc(F)ccc4s3)c21", "human platelet rich plasma (PRP)", "0.25 µM"),
    ("CC1(C)CN(c2ccccc2NC(=O)Nc2ccc(C(F)(F)F)cc2)c2c(O)ccc(C(F)(F)F)c21", "human platelet rich plasma (PRP)", "0.27 µM"),
    ("CSc1ncc(-c2c(F)cc(O)c3c2C(C)(C)CN3c2ccccc2NC(=O)Nc2ccc(OC(F)(F)F)cc2)cn1", "human platelet rich plasma (PRP)", "0.25 µM"),
    ("CC1(C)CN(c2ccccc2NC(=O)Nc2nc3ccc(F)cc3s2)c2c(O)cc(F)c(Br)c21", "human platelet rich plasma (PRP)", "0.77 µM"),
    ("CC1(C)CN(c2ccccc2NC(=O)Nc2nc3ccc(Cl)cc3s2)c2c(O)cc(F)c(-c3nc4cc(F)ccc4s3)c21", "human platelet rich plasma (PRP)", "0.35 µM"),
]

# batch size: 2; output IC50 per entry
1. CCC1(CC)CN(c2ccccc2NC(=O)Nc2ccc(OC(F)(F)F)cc2)c2c(O)ccc(C#N)c21
2. CC1(C)CN(c2ccccc2NC(=O)Nc2csc(Cl)n2)c2c(O)cc(F)c(Br)c21

["0.47 µM", "0.6 µM"]

----------
- Test system: human platelet rich plasma (PRP)
- assay.details: ADP induced platelet aggregation assay
- condition.info: Homo sapiens, Platelet, 5 min, read-out: PA IC50 (μM) @ 10 μM ADP, human PRP, 10 μM ADP, AUC at 5 minute
Mark Y only when IC50 stays strictly below 0.5 µM. Values equal to the cut-off are N.

Is it true that IC50 reported for CC1(C)CN(c2ccccc2NC(=O)Nc2nc3ccc(F)cc3s2)c2c(O)cc(F)c(-c3ccc(C(F)(F)F)cn3)c21 is less than 0.5 µM?
Y

----------
Provide the recorded Ki for the entries that follow.
- system: cloned human P2Y1 receptors (Homo sapiens (Human))
- assay.details: Binding Assay B - Scintillation Proximity Assay (SPA) for P2Y1 binding, [33P] 2MeS-ADP
- condition.info: SPA, 0.3 nM [33P] 2MeS-ADP, Cheng-Prusoff; read-out: P2Y1 Ki (nM) using binding assay B
- Procedure: Binding Assay B—Scintillation Proximity Assay (SPA) for P2Y1 Binding A SPA membrane binding assay was used to identify inhibitors of [^33P] […] Reactions were allowed to proceed to completion at room temperature for 1 hour followed by centrifugation of the plate for 5 min. About 40 μL of the aqueous solution was aspirated. Plates were sealed and the [^33P]
Answers are plain numbers, in nM.

Would you please look over these solved cases?
# compound, Ki, nM
data = [
    ("CCC1(CC)CN(c2ccccc2NC(=O)Nc2ccc(C3CCCN3CC(C)C)cc2)c2c(O)ccc(F)c21 (stereo not shown)", 5.1),
    ("COC(=O)c1ccc(O)c2c1C(C)(C)CN2c1ccccc1NC(=O)Nc1ccc(OC(F)(F)F)cc1", 9),
    ("CC1(C)CN(c2ccccc2NC(=O)Nc2ccc(OC(F)(F)F)cc2)c2c(O)cc(F)c(C3CC3)c21", 18.3),
]

// next entry
Ki in this record for CC(C)c1noc(-c2c(F)cc(O)c3c2C(C)(C)CN3c2ccccc2NC(=O)Nc2ccc(OC(F)(F)F)cc2)n1 : 6.6

----------
- system: UniProt:P47900
- assay.details: Binding Assay B - Scintillation Proximity Assay (SPA) for P2Y1 binding, [33P] 2MeS-ADP
- condition.info: SPA, 0.3 nM [33P] 2MeS-ADP, Cheng-Prusoff; read-out: P2Y1 Ki (nM) using binding assay B
Where a name gives a salt, the structure may show the parent alone.
For each record, write down the corresponding Ki.
Numbers only, in nM.

Please give Ki for each item listed below.
1. CC1(C)CN(c2cc(F)ccc2NC(=O)Nc2ccc(F)cc2F)c2c(O)ccc(C(F)(F)F)c21
2. CCC1(CC)CN(c2ccccc2NC(=O)Nc2ccc(C3CCCN3CC(C)(C)C)cc2)c2c(O)cccc21 (centres unmarked)
3. CC1(C)CN(c2ccccc2NC(=O)Nc2ccc(OC(F)(F)F)cc2)c2c(O)ccc(-c3nc4ccccc4o3)c21

1: 5.7; 2: 8.6; 3: 15.8

// for each compound below, give its Ki
1. CC1(C)CN(c2ccccc2NC(=O)Nc2ccc(OC(F)(F)F)cc2)c2c(O)ccc(-c3nc4cccnc4o3)c21
2. Cc1c(-c2c(F)cc(O)c3c2C(C)(C)CN3c2ccccc2NC(=O)Nc2ccc(OC(F)(F)F)cc2)cnn1-c1ccccc1
3. CC1(C)CN(c2ccccc2NC(=O)Nc2nc3ccc(Cl)cc3s2)c2c(O)ccc(C(F)(F)F)c21

1: 12.3; 2: 17.6; 3: 23.6

Go through the items and report each one's Ki.
1. CC1(C)CN(c2ccccc2NC(=O)Nc2nc3ccc(F)nc3s2)c2c(O)cc(F)c(-c3nc4cc(F)ccc4s3)c21
2. CC(C)(C)c1ccc(-c2c(F)cc(O)c3c2C(C)(C)CN3c2ccccc2NC(=O)Nc2ccc(OC(F)(F)F)cc2)cc1
3. CC1(C)CN(c2ccccc2NC(=O)Nc2ccc(OC(F)(F)F)cc2)c2c(O)cc(F)c(-c3nc4cc(F)ccc4s3)c21
4. CC1(C)CN(c2ccccc2NC(=O)Nc2ccc(OC(F)(F)F)cc2)c2c(O)c(F)cc(-c3ccc(Cl)cc3)c21

15.7
33.3
24.1
15.2

Working through the 7 compounds below one at a time, give Ki for each.
1. CC1(C)CN(c2ccccc2NC(=O)Nc2ccc(OC(F)(F)F)cc2)c2c(O)cc(F)c(-c3noc(C(F)(F)F)n3)c21
2. CC1(C)CN(c2ccccc2NC(=O)Nc2ccc(C(F)(F)F)cc2)c2c(O)ccc(Cl)c21
3. CC1(C)CN(c2ccccc2NC(=O)Nc2nc3ccc(F)cc3s2)c2c(O)cc(F)c(-c3noc(C(F)(F)F)n3)c21
4. CC(C)CN1CCCC1c1ccc(NC(=O)Nc2ccccc2N2CC(C)(C)c3c(F)ccc(O)c32)cc1 (centres unmarked)
5. CC1(C)CN(c2cccc(F)c2NC(=O)Nc2ccc(F)cc2F)c2c(O)ccc(C(F)(F)F)c21
6. CCC1(CC)CN(c2ccccc2NC(=O)Nc2ccc(C(C)(C)C)cc2)c2c(O)ccc(C#N)c21
7. CC1(C)CN(c2ccccc2NC(=O)Nc2ccc(OC(F)(F)F)cc2)c2c(O)ccc(-c3ccc(C(F)(F)F)nc3)c21 [Example 120, TFA]

1: 48.7; 2: 8.3; 3: 54.9; 4: 9.8; 5: 5.2; 6: 6.9; 7: 7.9

Provide each entry's Ki from the list below.
1. CC(C)Cn1cc(-c2c(F)cc(O)c3c2C(C)(C)CN3c2ccccc2NC(=O)Nc2ccc(OC(F)(F)F)cc2)cn1
2. CC1(C)CN(c2ccccc2NC(=O)Nc2ccc(OC(F)(F)F)cc2)c2c(O)ccc(-c3ccc(F)cc3)c21
3. CC(C)(C)c1ccc(NC(=O)Nc2ccccc2N2CC(C)(C)c3c(C(F)(F)F)ccc(O)c32)cc1
4. CCC1(CC)CN(c2ccccc2NC(=O)Nc2nc3c(s2)CN(CC(F)(F)F)CC3)c2c(O)ccc(Cl)c21
5. CC1(C)CN(c2ccccc2NC(=O)Nc2nc3ccc(F)nc3s2)c2c(O)cc(F)c(-c3ccc(Cl)cc3)c21
6. CC1(C)CN(c2ccccc2NC(=O)Nc2nc3ccc(Cl)cc3s2)c2c(O)cc(F)c(Br)c21

1: 10.7; 2: 6.9; 3: 8.2; 4: 16.2; 5: 21.6; 6: 31.3
